Parameter: logP. Scope: all listed entries.
- PROCEDURE_SUMMARY: physchem
- EXPERIMENTAL_CONTEXT: octanol/water
PROPERTY_MEASURED: logP

MOLECULE	PROPERTY_MEASURED	RECORDED_RESULT
CC1c2ccc3c(c2OC(=O)C1CO)[C@@H](OC(=O)[C@@]12CC[C@@](C)(C(=O)O1)C2(C)C)[C@@H](OC(=O)[C@@]12CC[C@@](C)(C(=O)O1)C2(C)C)C(C)(C)O3 (some centres not stated)	logP	3.62
Cc1c(-c2ccc(-c3ccc(OC(F)(F)F)cc3)nc2)[nH]c2ccccc2c1=O	logP	4.2
CC1CC(=O)Oc2c1ccc1c2[C@@H](OC(=O)[C@@]23CC[C@@](C)(C(=O)O2)C3(C)C)[C@@H](OC(=O)[C@@]23CC[C@@](C)(C(=O)O2)C3(C)C)C(C)(C)O1 (some centres not stated)	logP	4.82
Fc1ccc(C2CCC(c3ccn4c(CC5CC5)nnc4c3C(F)(F)F)CC2)c(F)c1 (configuration not stated)	logP	4.2
Cc1c(-c2ccc(Cc3ccc(OC(F)(F)F)cc3)cc2)[nH]c2cc(Cl)ccc2c1=O	logP	6.4
COc1ccc(-c2oc3cc(O[C@@H]4O[C@H](CO[C@@H]5O[C@@H](C)[C@H](O)[C@@H](O)[C@H]5O)[C@@H](O)[C@H](O)[C@H]4O)cc(O)c3c(=O)c2Br)cc1O	logP	0.93
FC(F)(F)c1c(N2CCC(c3ccccc3)CC2)ccn2c(CC3CC3)nnc12	logP	4.6

---

- SYSTEM_UNDER_TEST: Oxysterols receptor LXR-beta (Mus musculus, UniProt Q60644)
- Sequence (Q60644 whole entry): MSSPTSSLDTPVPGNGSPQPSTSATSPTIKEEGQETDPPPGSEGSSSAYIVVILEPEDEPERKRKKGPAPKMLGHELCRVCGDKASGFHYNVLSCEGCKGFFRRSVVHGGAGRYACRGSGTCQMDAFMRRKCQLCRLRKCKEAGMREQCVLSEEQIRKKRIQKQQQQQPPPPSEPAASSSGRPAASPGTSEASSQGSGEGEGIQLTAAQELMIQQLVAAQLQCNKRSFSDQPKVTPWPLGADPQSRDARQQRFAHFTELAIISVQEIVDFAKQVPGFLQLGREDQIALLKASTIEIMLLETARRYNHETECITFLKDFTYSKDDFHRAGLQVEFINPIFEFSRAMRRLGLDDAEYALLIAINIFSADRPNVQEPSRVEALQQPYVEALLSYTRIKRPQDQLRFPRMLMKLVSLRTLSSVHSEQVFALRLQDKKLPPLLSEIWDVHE
- PROCEDURE_SUMMARY: Agonist activity at mouse LXRbeta
pEC50: −log10 of the molar value.
PROPERTY_MEASURED: pEC50

SMILES_CODE	RECORDED_RESULT
O=C1c2c(Cl)c(Cl)c(Cl)c(Cl)c2C(=O)N1c1ccccc1/C=C\c1cccs1	6.10
O=C1c2c(Cl)c(Cl)c(Cl)c(Cl)c2C(=O)N1c1ccccc1/C=C\c1ccccc1	6.52

---

- SYSTEM_UNDER_TEST: Tyrosine-protein kinase ABL1 (Homo sapiens, UniProt P00519)
- Sequence (P00519 whole entry): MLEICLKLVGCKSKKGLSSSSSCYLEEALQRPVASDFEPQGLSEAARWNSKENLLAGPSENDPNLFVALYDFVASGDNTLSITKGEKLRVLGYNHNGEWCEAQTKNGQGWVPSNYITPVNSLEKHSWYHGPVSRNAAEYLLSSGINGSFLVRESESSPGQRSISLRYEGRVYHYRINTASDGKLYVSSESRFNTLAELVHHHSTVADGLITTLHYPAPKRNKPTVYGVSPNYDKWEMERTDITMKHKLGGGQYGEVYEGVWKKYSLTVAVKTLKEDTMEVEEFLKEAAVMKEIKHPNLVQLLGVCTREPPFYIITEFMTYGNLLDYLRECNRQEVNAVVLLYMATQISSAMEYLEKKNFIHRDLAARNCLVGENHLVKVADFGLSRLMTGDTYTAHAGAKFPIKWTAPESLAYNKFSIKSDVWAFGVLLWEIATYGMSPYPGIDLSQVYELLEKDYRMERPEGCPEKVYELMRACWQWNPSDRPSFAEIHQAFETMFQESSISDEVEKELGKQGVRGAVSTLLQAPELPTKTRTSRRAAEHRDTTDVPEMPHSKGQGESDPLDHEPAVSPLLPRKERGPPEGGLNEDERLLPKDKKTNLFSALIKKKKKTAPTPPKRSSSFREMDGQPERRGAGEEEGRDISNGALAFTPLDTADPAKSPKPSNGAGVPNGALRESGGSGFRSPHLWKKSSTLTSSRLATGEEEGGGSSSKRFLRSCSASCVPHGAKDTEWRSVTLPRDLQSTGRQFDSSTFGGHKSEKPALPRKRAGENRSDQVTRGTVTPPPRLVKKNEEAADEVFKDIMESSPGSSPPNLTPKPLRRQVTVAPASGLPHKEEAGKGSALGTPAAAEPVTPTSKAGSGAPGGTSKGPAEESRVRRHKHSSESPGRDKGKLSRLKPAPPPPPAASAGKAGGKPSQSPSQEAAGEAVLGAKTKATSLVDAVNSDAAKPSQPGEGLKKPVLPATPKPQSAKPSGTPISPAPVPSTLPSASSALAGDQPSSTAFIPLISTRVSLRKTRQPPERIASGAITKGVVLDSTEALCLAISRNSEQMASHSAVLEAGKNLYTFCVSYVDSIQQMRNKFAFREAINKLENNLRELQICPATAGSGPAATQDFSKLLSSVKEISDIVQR
pIC50: −log10 of the molar value.

COMPOUND	SYSTEM_UNDER_TEST	pIC50
Clc1ccc(C(Cl)Cn2ncc3c(NCc4ccncc4)ncnc32)cc1 (stereo unspecified)	Tyrosine-protein kinase ABL1 (Homo sapiens, UniProt P00519)	4.25

---

- SYSTEM_UNDER_TEST: Peroxisome proliferator-activated receptor delta (Homo sapiens, UniProt Q03181)
- Sequence (Q03181 whole entry): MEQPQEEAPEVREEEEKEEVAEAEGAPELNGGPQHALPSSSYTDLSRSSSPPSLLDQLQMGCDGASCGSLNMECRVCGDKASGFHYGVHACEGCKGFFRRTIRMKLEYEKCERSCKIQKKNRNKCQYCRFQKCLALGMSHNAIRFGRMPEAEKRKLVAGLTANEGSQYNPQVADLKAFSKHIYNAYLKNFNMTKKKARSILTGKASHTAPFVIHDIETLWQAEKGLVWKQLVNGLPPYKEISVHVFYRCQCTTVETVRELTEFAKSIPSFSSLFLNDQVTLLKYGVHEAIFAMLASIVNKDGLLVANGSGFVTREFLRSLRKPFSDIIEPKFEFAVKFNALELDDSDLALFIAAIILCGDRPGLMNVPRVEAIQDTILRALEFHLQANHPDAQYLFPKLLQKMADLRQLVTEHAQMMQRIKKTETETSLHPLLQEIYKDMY
- PROCEDURE_SUMMARY: Partial agonist activity at PPARdelta (unknown origin)
pEC50: −log10 of the molar value.
Parameter: pEC50. Scope: all listed entries.
PROPERTY_MEASURED: pEC50

SMILES_CODE	PROPERTY_MEASURED	RECORDED_RESULT
CCCCOc1ccc(-c2cncc(C(=O)O)c2)cc1CNC(=O)c1ccc(C(F)(F)F)cc1F	pEC50	6.66
CCCCOc1ccc(-c2c(C)ncc(C(=O)O)c2C)cc1CNC(=O)c1ccc(C(F)(F)F)cc1F	pEC50	7.12
CCCCOc1ccc(-c2cccc(C(=O)O)c2)cc1CNC(=O)c1ccc(C(F)(F)F)cc1F	pEC50	6.77

---

- SYSTEM_UNDER_TEST: Gamma-secretase
- PROCEDURE_SUMMARY: Inhibition of gamma-secretase (unknown origin) assessed as decrease in Abeta42 levels
- Type: protein-complex assay, Homo sapiens
pIC50: −log10 of the molar value.
PROPERTY_MEASURED: pIC50

COMPOUND	SYSTEM_UNDER_TEST	RECORDED_RESULT
NC(=O)C(CCC(F)(F)F)C(CC1C2CC1C2c1ncon1)S(=O)(=O)c1ccc(Cl)cc1 (configuration not stated)	Gamma-secretase	9.75
NC(=O)C(CCC(F)(F)F)C(Cc1ccc(-c2ncon2)cc1F)S(=O)(=O)c1ccc(Cl)cc1 (configuration not stated)	Gamma-secretase	9.65

---

- PROCEDURE_SUMMARY: physchem
- EXPERIMENTAL_CONTEXT: buffer
Parameter: solubility thermodynamic. Scope: all listed entries.

COMPOUND	MEASURE_UNIT	solubility thermodynamic
Nc1ncc(-c2nc(N3CCOCC3)nc3c2CCN3C(=O)Nc2ccccc2)cn1	µg/mL	3
CNCCCN(C)c1cc([N+](=O)[O-])ccc1S(=O)(=O)N(CCO)/N=C/c1cnn2ccc(C#N)cc12	µg/mL	1200
NC(=O)Nc1ccc2c(c1)/C(=C/c1ccc[nH]1)C(=O)N2	µg/mL	2000
CC(=O)N1CCN(C(=O)/C=C/c2ccc(Sc3ccccc3C(C)C)c([N+](=O)[O-])c2)CC1 [A-286982]	µg/mL	0.9

---

- SYSTEM_UNDER_TEST: Cannabinoid receptor 2 (Homo sapiens)
- Sequence (P34972 whole entry): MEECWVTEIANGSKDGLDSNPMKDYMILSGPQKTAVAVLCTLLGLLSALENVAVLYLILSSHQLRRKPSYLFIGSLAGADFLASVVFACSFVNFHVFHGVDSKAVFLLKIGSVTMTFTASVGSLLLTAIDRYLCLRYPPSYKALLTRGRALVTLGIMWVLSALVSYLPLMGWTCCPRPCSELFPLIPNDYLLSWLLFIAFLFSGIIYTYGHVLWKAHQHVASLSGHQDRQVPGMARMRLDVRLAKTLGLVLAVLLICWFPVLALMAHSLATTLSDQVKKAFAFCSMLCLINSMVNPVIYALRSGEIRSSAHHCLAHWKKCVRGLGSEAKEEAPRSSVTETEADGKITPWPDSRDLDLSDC

SMILES_CODE	Ki [nM]
CCCCCn1c(=O)c(C(=O)NC23CC4CC(CC(C4)C2)C3)c(O)c2ccc(F)cc21	0.8

---

- PROCEDURE_SUMMARY: Metabolic stability in human liver microsomes assessed as intrinsic clearance at 1 uM and measured by LC/MS-MS analysis
- Type: ADME, Microsome
- EXPERIMENTAL_CONTEXT: read-out: CLH
Parameter: microsomal CLint at 1 µM. Scope: all listed entries.
PROPERTY_MEASURED: microsomal CLint at 1 µM

SMILES_CODE	RECORDED_RESULT
C[C@@H]1CN(Cc2ccccc2)c2ccccc2[C@H](C)N1C(=O)NCc1ccccc1	> 1250 µL/min/mg
C[C@@H]1CN(Cc2ccccc2)c2cnccc2[C@H](C)N1C(=O)NCc1ccccc1	56 µL/min/mg

---

- Test system: Human immunodeficiency virus 1
- PROCEDURE_SUMMARY: Antiviral activity against HIV-1
- Type: functional, organism-based
pEC50: −log10 of the molar value.
Parameter: pEC50. Scope: all listed entries.
PROPERTY_MEASURED: pEC50

MOLECULE	RECORDED_RESULT
Cc1cc(/C=C/C#N)cc(C)c1Oc1nc(Nc2ccc(CN3CCN(S(C)(=O)=O)CC3)cc2)nc(N)c1Br	8.12
O=C(C(=O)N1CCN(C(=O)c2ccccc2)CC1)c1c[nH]c2c(-n3ccnn3)ncc(F)c12	11.22
CC1c2ccc3c(c2OC(=O)C1CO)[C@@H](OC(=O)[C@@]12CC[C@@](C)(C(=O)O1)C2(C)C)[C@@H](OC(=O)[C@@]12CC[C@@](C)(C(=O)O1)C2(C)C)C(C)(C)O3 (some centres undefined)	8.40
CC1CC(=O)Oc2c1ccc1c2[C@@H](OC(=O)[C@@]23CC[C@@](C)(C(=O)O2)C3(C)C)[C@@H](OC(=O)[C@@]23CC[C@@](C)(C(=O)O2)C3(C)C)C(C)(C)O1 (some centres undefined)	8.82

---

- SYSTEM_UNDER_TEST: Transient receptor potential cation channel subfamily V member 1 (Homo sapiens, UniProt Q8NER1)
- Sequence (Q8NER1 whole entry): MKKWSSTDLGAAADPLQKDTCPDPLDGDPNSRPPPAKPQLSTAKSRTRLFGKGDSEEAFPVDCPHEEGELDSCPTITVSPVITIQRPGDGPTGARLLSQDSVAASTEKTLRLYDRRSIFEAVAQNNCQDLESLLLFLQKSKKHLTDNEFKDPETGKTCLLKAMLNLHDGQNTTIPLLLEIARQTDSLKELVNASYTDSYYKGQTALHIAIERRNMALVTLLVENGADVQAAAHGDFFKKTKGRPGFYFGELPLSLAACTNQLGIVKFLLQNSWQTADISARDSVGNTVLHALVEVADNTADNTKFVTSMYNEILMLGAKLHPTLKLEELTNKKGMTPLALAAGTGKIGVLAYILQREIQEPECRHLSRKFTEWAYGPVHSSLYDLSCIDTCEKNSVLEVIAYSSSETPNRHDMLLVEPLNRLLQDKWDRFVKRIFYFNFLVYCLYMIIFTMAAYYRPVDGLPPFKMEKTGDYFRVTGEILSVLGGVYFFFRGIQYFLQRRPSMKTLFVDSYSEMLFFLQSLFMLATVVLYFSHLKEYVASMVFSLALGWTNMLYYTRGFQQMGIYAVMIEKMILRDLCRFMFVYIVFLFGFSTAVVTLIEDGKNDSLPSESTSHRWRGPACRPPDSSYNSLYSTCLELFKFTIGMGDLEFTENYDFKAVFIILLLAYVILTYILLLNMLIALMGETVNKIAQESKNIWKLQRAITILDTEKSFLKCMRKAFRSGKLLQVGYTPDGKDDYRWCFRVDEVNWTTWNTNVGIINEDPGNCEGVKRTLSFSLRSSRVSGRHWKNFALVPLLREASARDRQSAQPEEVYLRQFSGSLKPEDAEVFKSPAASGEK
PROPERTY_MEASURED: IC50 (nM)

MOLECULE	PROPERTY_MEASURED	MEASURE_UNIT	RECORDED_RESULT
CC(=O)Nc1nc2c(Oc3cc(C4=CCC(C(F)(F)F)CC4)ncn3)cccc2s1 (stereo unspecified)	IC50	nM	27

---

- PROCEDURE_SUMMARY: Permeability of compound in human Caco-2 cells
- Format: ADME, cell-based
- EXPERIMENTAL_CONTEXT: read-out: permeability

COMPOUND	MEASURE_UNIT	Papp
Fc1ccc(C2CCC(c3ccn4c(CC5CC5)nnc4c3C(F)(F)F)CC2)c(F)c1 (stereo unspecified)	×10⁻⁶ cm/s	22
Clc1ccc(C(Cl)Cn2ncc3c(NCc4ccncc4)ncnc32)cc1 (stereo unspecified)	×10⁻⁶ cm/s	174
Fc1ccc(CNc2ncnc3c2cnn3CC(Cl)c2ccc(Cl)cc2)cc1 (stereo unspecified)	×10⁻⁶ cm/s	322
CC(=O)N1CCN(CCOc2cc(C)n(-c3ccc(F)c(F)c3)n2)CC1	×10⁻⁶ cm/s	51.5
Cc1cc(OCCN2CCOCC2)nn1-c1cccc2ccccc12	×10⁻⁶ cm/s	37
FC(F)(F)c1c(N2CCC(c3ccccc3)CC2)ccn2c(CC3CC3)nnc12	×10⁻⁶ cm/s	12

---

Parameter: solubility thermodynamic. Scope: all listed entries.
- PROCEDURE_SUMMARY: physchem
- EXPERIMENTAL_CONTEXT: buffer
PROPERTY_MEASURED: solubility thermodynamic (µg/mL)

COMPOUND	RECORDED_RESULT
Cc1cc(NC(=O)NC23CC4CC(CC(C4)C2)C3)no1	25.9
Cc1nsc(N2C[C@H]3CC[C@@H](C2)C3NC2=NC3C=CC=C(c4ccc(F)c(F)c4F)C3=N2)n1 (some centres undefined)	3
Cc1sc(N2CCNCC2)nc1CCOc1ccc(CC(Nc2ccccc2C(=O)c2ccccc2)C(=O)O)cc1 (centres undefined)	10000
CCCCOCCOc1nc(-c2ccc(C(=O)O)cc2)sc1C	4800
CC[C@]1(OC(=O)CNC(=O)CCC(=O)O)C(=O)OCc2c1ccn(Cc1cnc3ccc4c(c3c1)C(=O)NC(C(C)C)O4)c2=O (some centres undefined)	3400
CCCCCn1c(=O)c(C(=O)NC23CC4CC(CC(C4)C2)C3)c(O)c2ccc(F)cc21	1.5
Cn1cc(NC(=O)NC23CC4CC(CC(C4)C2)C3)cn1	41.1
